These measurements were taken from ChEMBL document CHEMBL3885861.

- Species: Rattus norvegicus
- ASSAY INFO: Open TG-GATES - Regimen: Daily Repeat
- Assay type: toxicity, organism-based, Sprague-Dawley
- Design: regimen Daily Repeat, gender Male, age 6 weeks
- EXPERIMENTAL PARAMETERS: in vivo, po, 0 mg/kg, 72 h, tissue Plasma, route gavage, dose level Control, time 3 day
PARAMETER: ALT (IU/L)
Give the value, in units of IU/L, as a plain number.

Which ALT is listed for NS(=O)(=O)c1cc(C(=O)O)c(NCc2ccco2)cc1Cl [FUROSEMIDE] ?
42

Item: CN(C/C=C/C#CC(C)(C)C)Cc1cccc2ccccc12
34.2

Item: CCN(CC)C(=S)SSC(=S)N(CC)CC
42.6

Item: CC(=O)[C@@]1(O)CC[C@H]2[C@@H]3C=C(Cl)C4=CC(=O)CC[C@]4(C)[C@H]3CC[C@@]21C
43.8

Item: CCCCNC(=O)NS(=O)(=O)c1ccc(C)cc1 [TOLBUTAMIDE]
51

Item: CCCCC1C(=O)N(c2ccccc2)N(c2ccccc2)C1=O
35.2

Item: CC(S)C(=O)NCC(=O)O (stereo not drawn)
46.2

Item: O=c1ccc2ccccc2o1
39.8

Item: CN(CCOc1ccc(CC2SC(=O)NC2=O)cc1)c1ccccn1.O=C(O)/C=C\C(=O)O (stereo not drawn) [ROSIGLITAZONE MALEATE]
35.6

Item: COc1ccc([C@@H]2Sc3ccccc3N(CCN(C)C)C(=O)[C@@H]2OC(C)=O)cc1
45.8

Item: Nc1ccc(Cc2ccc(N)cc2)cc1
42

Item: O=C(O)c1ccccc1Nc1ccccc1
35.4

Item: CCO
39.6
